- System: F179 cells
- run.conditions: read-out: IC50 F179; 72 hours drug exposure; vector-only control cells
quantity.name: IC50

INSERT INTO assay_data (molecule, result) VALUES
  ('O=[N+]([O-])c1ccc([C@H]2CCO[P@@](=O)(N(CCCl)CCCl)N2)cc1 [trans-13b]', '> 100 µM');

Then this molecule:
GET IC50 where system = F179 cells and item = O=[N+]([O-])c1ccc([C@H]2CCN[P@@](=O)(N(CCCl)CCCl)N2)cc1 [trans-13d] > 100 µM

* * *

- target: E. coli nitroreductase (Escherichia coli, UniProt P38489)
- Sequence (P38489 whole entry): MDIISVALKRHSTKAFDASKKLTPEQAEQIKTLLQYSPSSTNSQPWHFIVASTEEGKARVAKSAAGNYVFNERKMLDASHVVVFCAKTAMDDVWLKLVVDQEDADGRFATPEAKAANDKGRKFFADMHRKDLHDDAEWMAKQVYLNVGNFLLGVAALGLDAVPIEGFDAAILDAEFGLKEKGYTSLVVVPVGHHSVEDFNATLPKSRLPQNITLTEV
- method.description: in vitro
- run.conditions: E. coli, pH 7
quantity.name: half-life (min)
Give the number; min is assumed, so skip it.

Report half-life for NC(=O)c1cc(N2CC2)c([N+](=O)[O-])cc1[N+](=O)[O-] [CB1954, 5-(aziridin-1-yl)-2,4-dinitrobenzamide, reference compound] 5

* * *

- Tested on: T116 cells
- method.description: cells
- Assay type: cell-based, Chinese hamster
- run.conditions: Cricetulus griseus, V79, 1 h, read-out: IC50 in E. coli nitroreductase-expressing T116 cells
quantity.name: IC50 (nM)
Kindly provide the numeric value in nM only, without the unit symbol.

Return reported IC50. Input compound: NP(=O)(OCc1ccc([N+](=O)[O-])cc1)N(CCCl)CCCl (stereo not shown) [Compound 15c] 10

* * *

The reader will find reported NR Assay vi (initial velocity) values listed item by item below.
- target: E. coli nitroreductase (Escherichia coli, UniProt P38489)
- Format: biochemical
- run.conditions: 200 μM compound, 1 mM NADH, 1.8 μg E. coli nitroreductase, 10 mM phosphate buffer pH 7.0, 37° C., 250 μL, UV 340 nm
The answer is to be given in nmol/min; state only the numeric part.

Recorded NR Assay vi (initial velocity), per entry:
INSERT INTO assay_data (compound, quantity_name, quantitative_readout) VALUES
  ('NP(=O)(OCc1ccccc1[N+](=O)[O-])N(CCCl)CCCl (centres unmarked) [Compound 15a]', 'NR Assay vi (initial velocity)', 0.46),
  ('COc1cc([N+](=O)[O-])ccc1COP(N)(=O)N(CCCl)CCCl (centres unmarked) [Compound 15i]', 'NR Assay vi (initial velocity)', 12.56),
  ('NP(=O)(OCc1ccc([N+](=O)[O-])cc1)N(CCCl)CCCl (centres unmarked) [Compound 15c]', 'NR Assay vi (initial velocity)', 2.31),
  ('Cc1cc(COP(N)(=O)N(CCCl)CCCl)ccc1[N+](=O)[O-] (centres unmarked) [Compound 15g]', 'NR Assay vi (initial velocity)', 1.61),
  ('COC(=O)c1cc(COP(N)(=O)N(CCCl)CCCl)ccc1[N+](=O)[O-] (centres unmarked) [Compound 15f]', 'NR Assay vi (initial velocity)', 0.30),
  ('CC(OP(N)(=O)N(CCCl)CCCl)c1ccc([N+](=O)[O-])cc1 (single isomer, unassigned) [Compound 15d-A]', 'NR Assay vi (initial velocity)', 2.53),
  ('O=[N+]([O-])c1ccc2c(c1)NP(=O)(N(CCCl)CCCl)OC2 (centres unmarked)', 'NR Assay vi (initial velocity)', 1.63);

Next compound, please.
Output measured NR Assay vi (initial velocity) for this item: O=[N+]([O-])c1ccc([C@@H]2CCN[P@](=O)(N(CCCl)CCCl)O2)cc1 [cis-13c] 2.33

* * *

- Test system: SKOV3 human ovarian carcinoma cells infected with adenovirus expressing E. coli nitroreductase (NR+)
- method.description: Cytotoxicity in SKOV3 cells infected with adenovirus expressing E. coli nitroreductase (NR+), MTT
- Type: cell-based
- run.conditions: SKOV3, 18 hour drug exposure
Below, each entry is listed alongside its reported Ratio of IC50 values (NR−/NR+).
Could you respond with only the numeric value?

Please review the following examples before continuing.
INSERT INTO assay_data (molecule, quantitative_readout) VALUES
  ('NP(=O)(OCc1ccccc1[N+](=O)[O-])N(CCCl)CCCl (stereo not shown) [Compound 15a]', 11),
  ('Cc1cc(COP(N)(=O)N(CCCl)CCCl)ccc1[N+](=O)[O-] (stereo not shown) [Compound 15g]', 155),
  ('O=[N+]([O-])c1ccc([C@@H]2CCN[P@](=O)(N(CCCl)CCCl)O2)cc1 [cis-13c]', 151);

Hello, please tell me recorded Ratio of IC50 values (NR−/NR+) for this one: O=[N+]([O-])c1ccc([C@H]2CCO[P@@](=O)(N(CCCl)CCCl)N2)cc1 [trans-13b] 3.3

Please supply the value of reported Ratio of IC50 values (NR−/NR+) for the item O=[N+]([O-])c1ccc2c(c1)NP(=O)(N(CCCl)CCCl)OC2 (stereo not shown) 9.8

State its Ratio of IC50 values (NR−/NR+) for this molecule: COc1cc(COP(N)(=O)N(CCCl)CCCl)ccc1[N+](=O)[O-] (stereo not shown) [Compound 15h] 294

Fill in reported Ratio of IC50 values (NR−/NR+) for this entry: COC(=O)c1cc(COP(N)(=O)N(CCCl)CCCl)ccc1[N+](=O)[O-] (stereo not shown) [Compound 15f] 190

Please list Ratio of IC50 values (NR−/NR+) recorded for the molecule O=[N+]([O-])c1ccc2c(c1)OP(=O)(N(CCCl)CCCl)NC2 (stereo not shown) 1.2

Identify Ratio of IC50 values (NR−/NR+) associated with the molecule NP(=O)(OCc1cccc([N+](=O)[O-])c1)N(CCCl)CCCl (stereo not shown) [Compound 15b] 3.4

* * *

- target: E. coli nitroreductase (Escherichia coli)
- Assay type: biochemical
- run.conditions: 200 μM compound, 1 mM NADH, 1.8 μg E. coli nitroreductase, 10 mM phosphate buffer pH 7.0, 37° C., 250 μL, UV 340 nm
Listing of recorded NR Assay vi (initial velocity) by entry.
# output: bare number, implied unit nmol/min

// below: answered molecules
INSERT INTO measurements (molecule, quantity_name, quantitative_readout) VALUES
  ('COc1cc(COP(N)(=O)N(CCCl)CCCl)ccc1[N+](=O)[O-] (stereo not shown) [Compound 15h]', 'NR Assay vi (initial velocity)', 4.40),
  ('NC(=O)c1cc(COP(N)(=O)N(CCCl)CCCl)ccc1[N+](=O)[O-] (stereo not shown) [Compound 15e]', 'NR Assay vi (initial velocity)', 0.38),
  ('NP(=O)(OCc1cccc([N+](=O)[O-])c1)N(CCCl)CCCl (stereo not shown) [Compound 15b]', 'NR Assay vi (initial velocity)', 1.23);

Let us examine a further case.
Provide measured NR Assay vi (initial velocity) value, entry: CC(OP(N)(=O)N(CCCl)CCCl)c1ccc([N+](=O)[O-])cc1 (single isomer, unassigned) [Compound 15d-B] 1.65

* * *

- Tested on: SKOV3 human ovarian carcinoma cells infected with adenovirus expressing E. coli nitroreductase (NR+)
- method.description: Cytotoxicity in SKOV3 cells infected with adenovirus expressing E. coli nitroreductase (NR+), MTT
- Format: cell-based
- run.conditions: SKOV3, 18 hour drug exposure
Ratio of IC50 values (NR−/NR+) values, listed per item

INSERT INTO measurements (molecule, result) VALUES
  ('NP(=O)(OCc1ccc([N+](=O)[O-])cc1)N(CCCl)CCCl (stereo not shown) [Compound 15c]', '>909'),
  ('CC(OP(N)(=O)N(CCCl)CCCl)c1ccc([N+](=O)[O-])cc1 (single isomer, unassigned) [Compound 15d-B]', '>250');

Check the records and state Ratio of IC50 values (NR−/NR+) for CC(OP(N)(=O)N(CCCl)CCCl)c1ccc([N+](=O)[O-])cc1 (single isomer, unassigned) [Compound 15d-A] >556

Look up and state reported Ratio of IC50 values (NR−/NR+) for O=[N+]([O-])c1ccc([C@H]2CCO[P@@](=O)(N(CCCl)CCCl)N2)cc1 [cis-13b] >2

Indicate the recorded Ratio of IC50 values (NR−/NR+) value for this molecule: NC(=O)c1cc(COP(N)(=O)N(CCCl)CCCl)ccc1[N+](=O)[O-] (stereo not shown) [Compound 15e] >24

Recall and state the measured Ratio of IC50 values (NR−/NR+) for COc1cc([N+](=O)[O-])ccc1COP(N)(=O)N(CCCl)CCCl (stereo not shown) [Compound 15i] . >556

Respond only with Ratio of IC50 values (NR−/NR+) recorded for O=[N+]([O-])c1ccc([C@@H]2CCN[P@](=O)(N(CCCl)CCCl)O2)cc1 [trans-13c] >200

// data source = patent US20040214798A1
